ΔTm values recorded for Serine/threonine-protein kinase Nek6 (Homo sapiens)

- compound: "CCN1/C(=C/C(C)=O)Sc2ccc(OC)cc21"
  ΔTm / °C: -1
- compound: "CN(C)CC1CCn2c(c(C3=C(c4c[nH]c5ccccc45)C(=O)NC3=O)c3ccccc32)C1 (stereo not drawn)"
  ΔTm / °C: -0.9
- compound: "CCOc1cc(/C=C(\\C#N)C(N)=O)cc(CSc2ccccc2)c1O"
  ΔTm / °C: -0.1
- compound: "CC(C)n1cnc2c(NCc3ccccc3O)nc(NCCCO)nc21"
  ΔTm / °C: 0
- compound: "O=c1c(O)c(-c2ccc(O)c(O)c2)oc2cc(O)cc(O)c12"
  ΔTm / °C: 1.6
- compound: "Cc1nc(N)sc1-c1ccnc(Nc2cccc([N+](=O)[O-])c2)n1"
  ΔTm / °C: 1.4
- compound: "COc1cccc(-c2cc(=O)c3ccccc3o2)c1N"
  ΔTm / °C: -0.1
- compound: "CC(C)(C)c1cc(C=C2C(=O)C=CC2=O)cc(C(C)(C)C)c1O"
  ΔTm / °C: 0.2
- compound: "Oc1cc(O)cc(/C=C/c2ccc(O)c(O)c2)c1"
  ΔTm / °C: 0.6
- compound: "Cn1cc(C2=C(c3cn(CCCN)c4ccccc34)C(=O)NC2=O)c2ccccc21"
  ΔTm / °C: -0.4
- compound: "COc1ccc(Cl)cc1NC(=O)Nc1cc(C)nc2ccccc12"
  ΔTm / °C: 0
- compound: "Nc1cccc(-c2cc3c(Oc4cccc(O)c4)ncnc3[nH]2)c1"
  ΔTm / °C: -1.3
- compound: "CC(C)(C)n1nc(-c2cccc3ccccc23)c2c(N)ncnc21"
  ΔTm / °C: 0.1
- compound: "O=c1c(-c2ccc(O)cc2)coc2cc(O)cc(O)c12"
  ΔTm / °C: 1
- compound: "NCCNS(=O)(=O)c1cccc2c(Cl)cccc12"
  ΔTm / °C: -0.4
- compound: "Ic1cccc(CSc2nnc(-c3ccncc3)o2)c1"
  ΔTm / °C: -0.8
- compound: "Cc1ccc(NC2=CC(=O)c3sc(C)nc3C2=O)cc1"
  ΔTm / °C: -0.6
- compound: "O=C1Nc2ccccc2/C1=C\\c1ccc[nH]1"
  ΔTm / °C: 0
- compound: "O=S(=O)(c1cccc2c(Cl)cccc12)N1CCCNCC1"
  ΔTm / °C: 0
- compound: "NC(=O)c1ccc(-c2nc(-c3ccc4c(c3)OCCO4)c(-c3ccccn3)[nH]2)cc1"
  ΔTm / °C: -0.7
- compound: "Nc1n[nH]c2nnc(-c3c(-c4ccccc4)nn4ccccc34)cc12"
  ΔTm / °C: 0.3
- compound: "COc1cc(O)c2c(c1)oc(=O)c1c3cc(O)c(O)cc3oc21"
  ΔTm / °C: 0.4
- compound: "O=C1NC(=O)c2c1c1c3ccccc3n3c1c1c2c2ccccc2n1C1CCC3O1"
  ΔTm / °C: -0.3

----------
# test_protocol: Inhibition of phosphorylase kinase
pIC50: −log10 of the molar value.

- compound: "Cl.Cn1cc(C2=C(c3ccc4cc5n(c4c3)CCC(CN)C5)C(=O)NC2=O)c2ccccc21 (stereo unspecified)"
  pIC50: 5.89

----------
# test_protocol: Inhibition of nerve growth factor-mediated MAP kinase activity in […] cells
# Format: cell-based
# experimental_context: PC-12
pIC50: −log10 of the molar value.

- structure_notation: "COc1cccc(-c2cc(=O)c3ccccc3o2)c1N"
  pIC50: 5.70

----------
# system_name: Death-associated protein kinase 3 (Homo sapiens)
Categorize each record by its ΔTm using small value: < 0.4 °C; mid value: ≥ 0.4 °C and < 2 °C; large value: ≥ 2 °C

- structure_notation: "Cn1cc(C2=C(c3cn(CCCSC(=N)N)c4ccccc34)C(=O)NC2=O)c2ccccc21"
  group_label: "mid value"
- structure_notation: "COc1cccc(-c2cc(=O)c3ccccc3o2)c1N"
  group_label: "small value"
- structure_notation: "NCCNc1ncc(C(N)=O)c(Nc2cccc(C(F)(F)F)c2)n1"
  group_label: "large value"
- structure_notation: "C/C(O)=C(\\C#N)C(=O)Nc1cc(Br)ccc1Br"
  group_label: "mid value"
- structure_notation: "CCOC(=O)c1cnc2oc3ccc(O)cc3c2c1-c1ccccc1"
  group_label: "mid value"
- structure_notation: "O=C1Nc2ccc(I)cc2/C1=C1/Nc2ccccc2/C1=N\\O"
  group_label: "mid value"
- structure_notation: "O=c1c(-c2ccc(F)cc2)c(-c2ccncc2)[nH]n1-c1ccc(Cl)cc1"
  group_label: "mid value"
- structure_notation: "COc1ccc(CNC(=O)Nc2ncc([N+](=O)[O-])s2)cc1"
  group_label: "small value"
- structure_notation: "COc1cc(O)c2c(c1)oc(=O)c1c3cc(O)c(O)cc3oc21"
  group_label: "small value"
- structure_notation: "c1ccc(-c2n[nH]c3c2oc2ccccc23)cc1"
  group_label: "small value"
- structure_notation: "O=C1NC(=O)c2c1c1c3ccccc3n3c1c1c2c2ccccc2n1C1CCC3O1"
  group_label: "small value"
- structure_notation: "Nc1ncnc2c1c(I)cn2[C@@H]1O[C@H](CO)[C@@H](O)[C@H]1O"
  group_label: "large value"
- structure_notation: "N#CC(C#N)=Cc1ccc(O)c(O)c1"
  group_label: "mid value"
- structure_notation: "O=C1Nc2ccccc2/C1=C/c1cnc[nH]1"
  group_label: "mid value"
- structure_notation: "NC1=N/C(=C2/CCNC(=O)c3[nH]ccc32)C(=O)N1"
  group_label: "large value"
- structure_notation: "CCN(CC)CCNC(=O)c1c(C)[nH]c(/C=C2\\C(=O)Nc3ccc(Cl)cc32)c1C"
  group_label: "large value"
- structure_notation: "CN1CCC(Nc2ncc3ncnc(Nc4ccc(F)c(Cl)c4)c3n2)CC1"
  group_label: "small value"
- structure_notation: "CN(C)S(=O)(=O)c1ccc2c(c1)/C(=C/c1cc3c([nH]1)CCCC3)C(=O)N2"
  group_label: "small value"
- structure_notation: "Cc1cc(Nc2nc(-c3ccccc3)nc3ccccc23)n[nH]1"
  group_label: "large value"
- structure_notation: "COc1cc2ncnc(Nc3ccc(NC(=O)c4ccccc4)cc3)c2cc1OC"
  group_label: "mid value"

----------
# system_name: Casein kinase I isoform gamma-3 (Homo sapiens) (UniProt Q9Y6M4)
# Sequence (Q9Y6M4 whole entry, looked up, canonical isoform): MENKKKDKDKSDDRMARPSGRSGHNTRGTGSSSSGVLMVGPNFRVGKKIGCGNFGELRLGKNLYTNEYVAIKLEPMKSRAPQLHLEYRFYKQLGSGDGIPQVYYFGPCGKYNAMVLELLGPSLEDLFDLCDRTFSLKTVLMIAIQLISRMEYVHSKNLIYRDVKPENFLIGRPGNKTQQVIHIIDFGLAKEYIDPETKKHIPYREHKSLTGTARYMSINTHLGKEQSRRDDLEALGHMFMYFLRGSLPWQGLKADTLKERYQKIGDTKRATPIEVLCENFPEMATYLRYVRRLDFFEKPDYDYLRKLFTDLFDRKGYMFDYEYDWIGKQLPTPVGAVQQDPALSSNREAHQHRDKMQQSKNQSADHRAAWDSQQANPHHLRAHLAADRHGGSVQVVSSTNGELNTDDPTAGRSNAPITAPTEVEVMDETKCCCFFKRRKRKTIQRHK
Lab note: compare ΔTm against 0.5 °C. Equal or greater, write yes (1). Smaller, write no (0).

- compound: "O=C(Nc1cccc(Nc2nccc(Nc3cccc(C(F)(F)F)c3)n2)c1)C1CC1"
  system_name: "Casein kinase I isoform gamma-3 (Homo sapiens) (UniProt Q9Y6M4)"
  group_label: "yes (1)"
- compound: "O=c1sn(Cc2ccccc2)c(=S)n1Cc1ccccc1"
  system_name: "Casein kinase I isoform gamma-3 (Homo sapiens) (UniProt Q9Y6M4)"
  group_label: "no (0)"
- compound: "NCCNS(=O)(=O)c1cccc2c(Cl)cccc12"
  system_name: "Casein kinase I isoform gamma-3 (Homo sapiens) (UniProt Q9Y6M4)"
  group_label: "no (0)"
- compound: "COc1ccc(S(=O)(=O)N(CCO)c2ccccc2CN(C)C/C=C/c2ccc(Cl)cc2)cc1"
  system_name: "Casein kinase I isoform gamma-3 (Homo sapiens) (UniProt Q9Y6M4)"
  group_label: "no (0)"
- compound: "NC1=N/C(=C2/CCNC(=O)c3[nH]ccc32)C(=O)N1"
  system_name: "Casein kinase I isoform gamma-3 (Homo sapiens) (UniProt Q9Y6M4)"
  group_label: "yes (1)"
- compound: "COc1cc2c(cc1OC)-c1n[nH]c(Nc3cccc(F)c3)c1C2"
  system_name: "Casein kinase I isoform gamma-3 (Homo sapiens) (UniProt Q9Y6M4)"
  group_label: "yes (1)"
- compound: "CC(C)n1cnc2c(NCc3ccccc3)nc(NCCCO)nc21"
  system_name: "Casein kinase I isoform gamma-3 (Homo sapiens) (UniProt Q9Y6M4)"
  group_label: "yes (1)"
- compound: "CN(C)S(=O)(=O)c1ccc2c(c1)/C(=C/c1cc3c([nH]1)CCCC3)C(=O)N2"
  system_name: "Casein kinase I isoform gamma-3 (Homo sapiens) (UniProt Q9Y6M4)"
  group_label: "yes (1)"
- compound: "N#C/C(=C1/Nc2ccccc2S1)c1ccnc(NCCc2cccnc2)n1"
  system_name: "Casein kinase I isoform gamma-3 (Homo sapiens) (UniProt Q9Y6M4)"
  group_label: "yes (1)"
- compound: "COc1cccc(-c2cc(=O)c3ccccc3o2)c1N"
  system_name: "Casein kinase I isoform gamma-3 (Homo sapiens) (UniProt Q9Y6M4)"
  group_label: "no (0)"
- compound: "O=C1c2ccccc2-[n+]2ccc3c([nH]c4ccccc43)c21 [FASCAPLYSIN CHLORIDE]"
  system_name: "Casein kinase I isoform gamma-3 (Homo sapiens) (UniProt Q9Y6M4)"
  group_label: "no (0)"
- compound: "COc1ccc2c(c[n+](C)c3c4cc5c(cc4ccc23)OCO5)c1OC [CHELERYTHRINE CHLORIDE]"
  system_name: "Casein kinase I isoform gamma-3 (Homo sapiens) (UniProt Q9Y6M4)"
  group_label: "no (0)"
- compound: "Nc1nccc(-c2c(-c3ccc(F)cc3)ncn2C2CCNCC2)n1"
  system_name: "Casein kinase I isoform gamma-3 (Homo sapiens) (UniProt Q9Y6M4)"
  group_label: "yes (1)"
- compound: "Brc1c(Br)c(Br)c2[nH]nnc2c1Br"
  system_name: "Casein kinase I isoform gamma-3 (Homo sapiens) (UniProt Q9Y6M4)"
  group_label: "no (0)"
- compound: "CN[C@@H]1CC2O[C@@](C)([C@@H]1OC)n1c3ccccc3c3c4c(c5c6ccccc6n2c5c31)C(=O)NC4"
  system_name: "Casein kinase I isoform gamma-3 (Homo sapiens) (UniProt Q9Y6M4)"
  group_label: "yes (1)"
- compound: "O=C1Cc2c([nH]c3ccc([N+](=O)[O-])cc23)-c2ccccc2N1"
  system_name: "Casein kinase I isoform gamma-3 (Homo sapiens) (UniProt Q9Y6M4)"
  group_label: "yes (1)"
- compound: "N#CC(C#N)=Cc1ccc(O)c(O)c1"
  system_name: "Casein kinase I isoform gamma-3 (Homo sapiens) (UniProt Q9Y6M4)"
  group_label: "no (0)"
- compound: "COc1cc(O)c2c(c1)oc(=O)c1c3cc(O)c(O)cc3oc21"
  system_name: "Casein kinase I isoform gamma-3 (Homo sapiens) (UniProt Q9Y6M4)"
  group_label: "yes (1)"
- compound: "COc1cc2ncnc(Nc3ccc(NC(=O)c4ccccc4)cc3)c2cc1OC"
  system_name: "Casein kinase I isoform gamma-3 (Homo sapiens) (UniProt Q9Y6M4)"
  group_label: "no (0)"
